outcomeMeasure: melting point

Answered examples (3):
smiles=CC1(C)C(=O)C=C[C@]2(C)[C@H]3C(=O)C=C4[C@@H]5C[C@@](C)(C(=O)O)CC[C@]5(C)CC[C@@]4(C)[C@]3(C)CC[C@@H]12 outcomemeasure="melting point" experimentalvalue="270 to 275 °C"
smiles=CC1(C)C(=O)C(C#N)=C[C@]2(C)[C@H]3C(=O)C=C4[C@@H]5C[C@@](C)(C(=O)O)CC[C@]5(C)CC[C@@]4(C)[C@]3(C)CC[C@@H]12 outcomemeasure="melting point" experimentalvalue="195 to 197 °C"
smiles=COC(=O)[C@@]1(C)CC[C@]2(C)CC[C@]3(C)C(=CC(=O)[C@@H]4[C@@]5(C)C=CC(=O)C(C)(C)[C@@H]5CC[C@]43C)[C@@H]2C1 outcomemeasure="melting point" experimentalvalue="192 to 194 °C"

Let's switch to this compound now.
stdin: // returns reported melting point for input COC(=O)[C@@]1(C)CC[C@]2(C)CC[C@]3(C)C(=CC(=O)[C@@H]4[C@@]5(C)C=C(C#N)C(=O)C(C)(C)[C@@H]5CC[C@]43C)[C@@H]2C1
stdout: 243 to 245 °C

* * *

# Tested on: SW480 colon cancer cells
# procedureDetails: Cell proliferation assay in SW480 cells
# Assay type: cell-based
# conditions: Homo sapiens, read-out: IC50, growth inhibition / cell proliferation
outcomeMeasure: pIC50
# pIC50: negative log10 of molar concentration; output just the value

Previously resolved entries follow.
molecule="CC1(C)C(=O)C=C[C@]2(C)[C@H]3C(=O)C=C4[C@@H]5C[C@@](C)(C(=O)O)CC[C@]5(C)CC[C@@]4(C)[C@]3(C)CC[C@@H]12 [β-DODA]" experimentalvalue=4.60
molecule="COC(=O)[C@@]1(C)CC[C@]2(C)CC[C@]3(C)C(=CC(=O)[C@@H]4[C@@]5(C)C=C(C#N)C(=O)C(C)(C)[C@@H]5CC[C@]43C)[C@H]2C1 [α-CDODA-Me]" experimentalvalue=6.30

# input for lookup
stdin: Which pIC50 is listed for COC(=O)[C@@]1(C)CC[C@]2(C)CC[C@]3(C)C(=CC(=O)[C@@H]4[C@@]5(C)C=CC(=O)C(C)(C)[C@@H]5CC[C@]43C)[C@@H]2C1 [β-DODA-Me] ?
stdout: 5.00

Just for reference, patent US8389573B2 is where these values come from.
